Target: human MASP1 (Homo sapiens (Human), UniProt P48740)
Sequence (P48740 other isoform, or with tags, fused parts or gaps): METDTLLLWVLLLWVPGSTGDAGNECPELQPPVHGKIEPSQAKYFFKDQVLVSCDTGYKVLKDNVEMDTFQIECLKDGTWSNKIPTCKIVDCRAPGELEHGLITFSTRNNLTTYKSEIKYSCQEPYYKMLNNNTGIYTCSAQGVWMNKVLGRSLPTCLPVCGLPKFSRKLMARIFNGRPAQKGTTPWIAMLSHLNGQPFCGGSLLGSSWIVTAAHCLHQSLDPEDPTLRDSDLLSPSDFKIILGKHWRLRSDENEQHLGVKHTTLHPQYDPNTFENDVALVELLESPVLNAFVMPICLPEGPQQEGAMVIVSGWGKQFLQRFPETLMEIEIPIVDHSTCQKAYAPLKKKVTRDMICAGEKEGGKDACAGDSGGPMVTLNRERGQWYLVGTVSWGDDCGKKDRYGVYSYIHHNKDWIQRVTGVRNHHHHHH
Assay: Biochemical human MASP1 assay (FRET substrate)
Conditions: Average IC50; recombinant human MASP1; read-out: human MASP1 IC50
Where a SMILES comes first, the peptide text is derived from it. Bridges are numbered along the chain shown (N, C = ends). [ ]: non-standard residue; d: D form. Oic = O=C(O)[C@@H]1C[C@@H]2CCCC[C@@H]2N1; tBuAla = CC(C)(C)C[C@H](N)C(=O)O; Pen = CC(C)(S)[C@H](N)C(=O)O; Orn = NCCC[C@H](N)C(=O)O; Dap = NC[C@H](N)C(=O)O; Ahx = NCCCCCC(=O)O; Sar = CNCC(=O)O
Please go through the items and note down their IC50.
Answers are plain numbers, in nM.

// known answers, use as guide
q: Data request, read-out IC50, for CC[C@H](C)[C@@H]1NC(=O)[C@H](C)NC(=O)CNC(=O)C[C@@H](C(N)=O)NC(=O)[C@@H]2CCCN2C(=O)[C@H]([C@@H](C)CC)NC(=O)[C@@H]2CSSC[C@H](NC1=O)C(=O)N[C@@H](CO)C(=O)N[C@@H](CCCNC(=N)N)C(=O)N[C@@H](CO)C(=O)N[C@@H](CC(C)C)C(=O)N1CCC[C@H]1C(=O)N1CCC[C@H]1C(=O)N[C@@H]([C@@H](C)CC)C(=O)N2 [Example 37] (GAICSRSLPPICIPD-NH2; disulfide 4-12; lactam N-15)
a: 16

q: Any idea what its IC50 is? The compound is CC[C@H](C)[C@@H]1NC(=O)CNC(=O)CN(C)C(=O)CCCCCNC(=O)CC[C@@H](C(N)=O)NC(=O)[C@@H]2CCCN2C(=O)[C@H]([C@@H](C)CC)NC(=O)[C@H]2NC(=O)[C@H]([C@@H](C)CC)NC(=O)[C@@H]3C[C@@H]4CCCC[C@@H]4N3C(=O)[C@@H]3CCCN3C(=O)[C@H](CC(C)C)NC(=O)[C@H](CO)NC(=O)[C@H](CCCNC(=N)N)NC(=O)[C@H](CO)NC(=O)[C@H](CSSC2(C)C)NC1=O [Example 76] ([Ahx][Sar]GICSRSLP[Oic]I[Pen]IPE-NH2; disulfide 5-13; lactam N-16)
a: 9.7

q: Return reported IC50; argument: CC[C@H](C)[C@@H]1NC(=O)CCCCCNC(=O)[C@H]([C@@H](C)CC)NC(=O)[C@H]2NC(=O)[C@H]([C@@H](C)CC)NC(=O)[C@@H]3CCCN3C(=O)[C@@H]3CCCN3C(=O)[C@H](CC(C)(C)C)NC(=O)[C@H](CO)NC(=O)[C@H](CCCNC(=N)N)NC(=O)[C@H](CO)NC(=O)[C@H](CSSC2(C)C)NC1=O [Example 52] (cyclo([Ahx]ICSRS[tBuAla]PPI[Pen]I); disulfide 3-11)
a: 7.9

q: What does the record list as IC50 for CC[C@H](C)[C@@H]1NC(=O)CNC(=O)CNC(=O)[C@H](C)NC(=O)C[C@@H](C(N)=O)NC(=O)[C@@H]2CCCN2C(=O)[C@H]([C@@H](C)CC)NC(=O)[C@H]2NC(=O)[C@H]([C@@H](C)CC)NC(=O)[C@@H]3C[C@@H]4CCCC[C@@H]4N3C(=O)[C@@H]3CCCN3C(=O)[C@H](CC(C)C)NC(=O)[C@H](CO)NC(=O)[C@H](CCCNC(=N)N)NC(=O)[C@H](CO)NC(=O)[C@H](CSSC2(C)C)NC1=O [Example 42] (AGGICSRSLP[Oic]I[Pen]IPD-NH2; disulfide 5-13; lactam N-16) ?
a: 13

q: Give its IC50 value. Item: CC[C@H](C)[C@@H]1NC(=O)CNC(=O)[C@H](CCCN)NC(=O)[C@H]([C@@H](C)CC)NC(=O)[C@H]2NC(=O)[C@H]([C@@H](C)CC)NC(=O)[C@@H]3CCCN3C(=O)[C@@H]3CCCN3C(=O)[C@H](CC(C)(C)C)NC(=O)[C@H](CO)NC(=O)[C@H](CCCNC(=N)N)NC(=O)[C@H](CO)NC(=O)[C@H](CSSC2(C)C)NC1=O [Example 65] (cyclo(CSRS[tBuAla]PPI[Pen]I[Orn]GI); disulfide 1-9)
a: 49

q: Recorded IC50 for CC[C@H](C)[C@@H]1NC(=O)CNC(=O)CNC(=O)[C@H](C)NC(=O)[C@H](CC(=O)O)NC(=O)[C@@H]2CCCN2C(=O)[C@H]([C@@H](C)CC)NC(=O)[C@@H]2CSSC[C@H](NC1=O)C(=O)N[C@@H](CO)C(=O)N[C@@H](CCCNC(=N)N)C(=O)N[C@@H](CO)C(=O)N[C@@H](CC(C)C)C(=O)N1CCC[C@H]1C(=O)N1CCC[C@H]1C(=O)N[C@@H]([C@@H](C)CC)C(=O)N2 [Example 18] (cyclo(AGGICSRSLPPICIPD); disulfide 5-13) , please?
a: 50

Report IC50 for every entry below.
1. CC[C@H](C)[C@@H]1NC(=O)[C@H](C)NC(=O)CN(C)C(=O)CCCCCNC(=O)CC[C@@H](C(N)=O)NC(=O)[C@@H]2CCCN2C(=O)[C@H]([C@@H](C)CC)NC(=O)[C@H]2NC(=O)[C@H]([C@@H](C)CC)NC(=O)[C@@H]3C[C@@H]4CCCC[C@@H]4N3C(=O)[C@@H]3CCCN3C(=O)[C@H](CC(C)C)NC(=O)[C@H](CO)NC(=O)[C@H](CCCNC(=N)N)NC(=O)[C@H](CO)NC(=O)[C@H](CSSC2(C)C)NC1=O [Example 77] ([Ahx][Sar]AICSRSLP[Oic]I[Pen]IPE-NH2; disulfide 5-13; lactam N-16)
2. CC[C@H](C)[C@@H]1NC(=O)CNC(=O)CNC(=O)[C@H](C)NC(=O)[C@@H](CC(=O)O)NC(=O)[C@@H]2CCCN2C(=O)[C@H]([C@@H](C)CC)NC(=O)[C@H]2NC(=O)[C@H]([C@@H](C)CC)NC(=O)[C@@H]3CCCN3C(=O)[C@@H]3CCCN3C(=O)[C@H](CC(C)(C)C)NC(=O)[C@H](CO)NC(=O)[C@H](CCCNC(=N)N)NC(=O)[C@H](CO)NC(=O)[C@H](CSSC2(C)C)NC1=O [Example 39] (cyclo(AGGICSRS[tBuAla]PPI[Pen]IP[dD]); disulfide 5-13)

a:
1. 11
2. 6

q: IC50 lookup needed for CC[C@H](C)[C@@H]1NC(=O)[C@H](CN)NC(=O)[C@@H]2CCCN2C(=O)[C@H]([C@@H](C)CC)NC(=O)[C@H]2NC(=O)[C@H]([C@@H](C)CC)NC(=O)[C@@H]3CCCN3C(=O)[C@@H]3CCCN3C(=O)[C@H](CC(C)(C)C)NC(=O)[C@H](CO)NC(=O)[C@H](CCCNC(=N)N)NC(=O)[C@H](CO)NC(=O)[C@H](CSSC2(C)C)NC1=O [Example 55] (cyclo(CSRS[tBuAla]PPI[Pen]IP[Dap]I); disulfide 1-9) , thanks.
a: 46

Cited source for all entries: patent US20240010684A1
